tested on: PPARg DBDmut IVT, anti-PPARg (DBD mutation: PPARg1 K132A/R137A, NR concentration 270 nM); assay: PBM binding z-score (relative to random genomic background probes); higher = stronger binding; sequences stand for … in GC…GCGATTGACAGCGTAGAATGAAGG
Criterion: PBM binding z-score meeting or surpassing 0.03. Met: fulfilled. Not met: not fulfilled.

>  <biosequence>
ATATGTAGGTTATCGGGTCAATCAGTTTGCGCAT

>  <class_assignment>
fulfilled

$$$$
>  <biosequence>
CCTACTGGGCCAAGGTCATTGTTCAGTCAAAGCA

>  <class_assignment>
not fulfilled

$$$$

Input: Tell me whether PBM binding z-score is at least 0.03 here: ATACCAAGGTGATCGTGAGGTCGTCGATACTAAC
Output: fulfilled

Input: PBM binding z-score >= 0.03 for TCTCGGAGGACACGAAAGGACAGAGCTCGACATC ?
Output: not fulfilled

Input: Item CCTAGCAGCCCAGGGTCACTCAAGCATTTCGCTT with PBM binding z-score of 0.03 or above?
Output: not fulfilled

Input: Could you tell me if the measured PBM binding z-score of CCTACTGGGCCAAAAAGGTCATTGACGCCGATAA reaches 0.03 or more?
Output: not fulfilled

Input: Reported PBM binding z-score at or above 0.03? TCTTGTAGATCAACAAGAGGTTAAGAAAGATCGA
Output: fulfilled

Input: Is PBM binding z-score for CCTACTGGGCCATTTAGAGGTCATTGATCATATG at or above 0.03?
Output: fulfilled

---

system: LXRb homodimer (NR concentration 270 nM); test: PBM binding z-score (relative to random genomic background probes); higher = stronger binding; sequences stand for … in GC…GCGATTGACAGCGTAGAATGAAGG
Classification field: label 1 = PBM binding z-score at or over -0.4; label 0 = PBM binding z-score under -0.4.

Some entries whose results are on file:
>  <biosequence>
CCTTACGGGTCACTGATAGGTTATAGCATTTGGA

>  <target_or_test_system>
LXRb homodimer (NR concentration 270 nM)

>  <class_assignment>
label 1

$$$$
>  <biosequence>
CGTCCAAGGTCAGCGAGGTCAGTGAATGCCGAGT

>  <target_or_test_system>
LXRb homodimer (NR concentration 270 nM)

>  <class_assignment>
label 1

$$$$
>  <biosequence>
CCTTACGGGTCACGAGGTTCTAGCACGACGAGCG

>  <target_or_test_system>
LXRb homodimer (NR concentration 270 nM)

>  <class_assignment>
label 1

$$$$

Input: In plain terms: is recorded PBM binding z-score at least -0.4 for AGTCATAGTTCAGGACGAGGTAACGTAAAGCACG ?
Output: label 1

Input: Is PBM binding z-score for ATACCACGGTGATCGTGAGGTCGTTGATACTAAC at or above -0.4?
Output: label 1

Input: Given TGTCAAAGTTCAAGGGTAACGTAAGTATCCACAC , state whether its PBM binding z-score is at least -0.4.
Output: label 1

Input: Can AGAATGAGGTTACCAAAGATGAGGGAAACGCTTG be said to have PBM binding z-score at or above -0.4?
Output: label 1

Input: Could you please find out whether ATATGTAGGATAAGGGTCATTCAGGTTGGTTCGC has PBM binding z-score that meets -0.4 or exceeds it?
Output: label 1
